tested on: M14 melanoma; test: NCI tumour cell line growth inhibition, 48 h; in the data active means GI50 below about 0.43 µM; inactive means the rest
Outcome codes: yes (1) = active, no (0) = inactive

Molecule	Group label
CN1CCN(Cc2ccc(NC(=O)c3cncc(C#Cc4cnc(N)c5ccc(F)cc45)c3)cc2C(F)(F)F)CC1	no (0)
Nc1c(C(=O)c2ccccc2)sc2nc(-c3cccs3)ccc12	yes (1)
CC(=O)OCC1OC(n2c(-c3ccccc3)cc(-c3ccco3)c(C#N)c2=O)C(OC(C)=O)C(OC(C)=O)C1OC(C)=O (stereo not drawn)	no (0)
O=C1c2cc(Br)ccc2-c2c1c1ccc([N+](=O)[O-])cc1c(=O)n2CCCCl	no (0)
CCOC(=O)[C@@H](C)C[C@H](Cc1ccccc1)NC(=O)c1csc([C@@H](C[C@H](C(C)C)N(C)C(=O)[C@@H](NC(=O)[C@H]2C[C@H](O[Si](C)(C)C(C)(C)C)CCN2C)C(C)C)OC(C)=O)n1	yes (1)
COc1cc(OC2OC(C)C(O)C(O)C2O)cc2oc(-c3ccc(O)cc3)c(CC=C(C)C)c(=O)c12 (stereo not drawn)	no (0)
COc1cccc(-c2nc3sccn3c2-c2ccnc(NCCNC(=O)Nc3cccc(C(F)(F)F)c3)n2)c1	no (0)
COc1cc([C@H](C)c2ccc3ccccc3c2)cc(OC)c1OC	yes (1)
